These data points were gathered from the COVID Moonshot data (paper PMC11187573).

Stated conditions: 100.0 µM
Assay readout: relative solubility at 100 uM
Response field accepts a number only; no unit should be typed.

// worked examples, relative solubility at 100 uM included
INSERT INTO assay_data (compound, assay_readout, recorded_measurement) VALUES
  ('NS(=O)(=O)c1ccc2c(c1)C(=O)C(=O)N2', 'relative solubility at 100 uM', 1),
  ('Cc1cccc(NC(=O)C(C#N)C(=O)C2CCC2)c1 (stereo not given)', 'relative solubility at 100 uM', 0.99),
  ('CC(NC(=O)c1ccccc1OCC(N)=O)c1cnn(C)c1 (stereo not given)', 'relative solubility at 100 uM', 1),
  ('CCOC(=O)[C@H]1O[C@@H]1C(=O)N[C@@H](CC(C)C)C(=O)NCCC(C)C (stereo in doubt)', 'relative solubility at 100 uM', 1),
  ('O=S(=O)(CCc1ccccc1)Nc1cccnc1', 'relative solubility at 100 uM', 0.99),
  ('CCOCC(=O)NCc1ccc(CNC(=O)Cn2nnc3ccccc32)cc1', 'relative solubility at 100 uM', 1);

q: Name the recorded relative solubility at 100 uM for O=C(NCCNc1ccncc1)c1cccc(S(=O)(=O)Nc2ccccc2-c2ccccc2)c1 .
a: 0.94

q: Name the recorded relative solubility at 100 uM for CCOC(=O)[C@@H](CCc1ccccc1)N[C@H](C)C(=O)Nc1cccc(CN2CCCC2)c1 (stereo in doubt) .
a: 0.97

q: Name the recorded relative solubility at 100 uM for C#CCN1CCN(C(=O)C=C)CC1 .
a: 1.01

q: Name the recorded relative solubility at 100 uM for C=CC(=O)N(C(C(=O)NC(C)(C)C)c1cccnc1)C1CC12CC(C)(C)C2 (stereo not given) .
a: 0.99
